- assayTarget: T1, 4H3427-AA
- T1 chain: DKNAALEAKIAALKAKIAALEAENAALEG
- assayRemarks: two-hybrid library CCmax;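 also: natural log of median RNA to DNA barcode read ratio; higher means stronger binding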
- testSettings: mean of both orientations
experimentalEndpoint: interaction score

{"binder": "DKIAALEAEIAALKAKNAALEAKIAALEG [4H2165-AA]", "interaction score": -1.3}

[P] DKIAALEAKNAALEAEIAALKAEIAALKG [4H2442-AA]
[Q] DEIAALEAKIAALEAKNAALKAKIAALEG [4H317-AA]
[R] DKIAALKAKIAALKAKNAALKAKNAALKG [4H2944-AA]
Query: Order these by interaction score, descending, and give the full ranking. List the labels according to the requested ordering.
Response: Q, R, P

The measurements presented in this section are drawn from paper PMC10397247.
